Test system: astro (control astrocytes)
assay-method-text: Drug repurposing screens with cells derived from glioblastoma tumor samples (AID 1345199); also: nearly all actives have a fitted effect of over 40% in size
condition-details: viability, ATP luminescence, 48 h; series mostly up to 45.9 µM
Description: CD133+ cells were isolated from GBM patient biopsies and cultured as neurospheres. Neurospheres from four patients were used to screen the NCATS pharmaceutical collection (NPC) library of approved drugs and bioactive compounds. […] The neurospheres were incubated with drugs for 48 hours in 1536-well format, then assayed with an ATP content cell viability assay. […]
Inconclusive results are not listed. Activity calls are given as the source filed them. Calls follow the shape of the dose curve; as a rule, active = well fitted inhibition curve with a large enough effect; inconclusive = small, poorly fitted or top-dose-only effect; inactive = flat fitted curve, though single readings scatter.
Please reply with one of these outcomes: active, inactive

Reference set, count: 2
CCN(CC)c1ccc(C(=C2C=CC(=[N+](CC)CC)C=C2)c2ccccc2)cc1 : active
COCC1=C(C(=O)OC(C)OC(=O)OC(C)C)N2C(=O)[C@@H](NC(=O)/C(=N\OC)c3csc(N)n3)[C@H]2SC1 (stereo partly drawn) : inactive

Please share the test call associated with C[C@H]1C[C@@H]2[C@H]([C@@H](O)C[C@@]3(C)[C@H]2CC[C@]3(O)C(=O)COC(=O)CCC(=O)O)[C@@]2(C)C=CC(=O)C=C12 .
inactive

====

Test system: Zika virus NS2B-NS3 protease (linked)
assay-method-text: 384 well plate NINDS AMC confirmatory qHTS for Zika virus inhibitors (AID 1347163); also: potency is read from the fitted curve at half-maximal effect; nearly all actives have a fitted effect of over 50% in size
condition-details: Recombinant NS2B-NS3 protease, Ac-VKTGKR-AMC fluorescence; series mostly up to 100 µM
Records with an inconclusive call do not appear. Activity calls are given as the source filed them. Calls follow the shape of the dose curve; as a rule, active = well fitted inhibition curve with a large enough effect; inconclusive = small, poorly fitted or top-dose-only effect; inactive = no such curve, though single readings can be large or run the other way.
measure-name: Potency

State Potency on Zika virus NS2B-NS3 protease (linked). Entry: Oc1cccc(-c2c3nc(c(-c4cccc(O)c4)c4ccc([nH]4)c(-c4cccc(O)c4)c4nc(c(-c5cccc(O)c5)c5ccc2[nH]5)CC4)C=C3)c1
3.16 µM (active)

Report measured Potency on Zika virus NS2B-NS3 protease (linked); entry: CC#C[C@@H](CC(=O)O)c1ccc(OCc2ccc(CN3CCC4(C=Cc5ccccc54)CC3)s2)cc1
5.01 µM (active)

// output Potency; input O=C(O)c1ccc(S(=O)(=O)N(Cc2ccc(OC(F)(F)F)cc2)c2ncc(C(F)(F)F)cc2Cl)cc1 ; system Zika virus NS2B-NS3 protease (linked)
2.51 µM (active)

Jot down Potency (Zika virus NS2B-NS3 protease (linked)) of COc1ccc(-c2ccccc2)cc1NS(=O)(=O)c1cc(Cl)cc(Cl)c1O .
4.47 µM (active)

Provide the reported Potency (system: Zika virus NS2B-NS3 protease (linked)) for O=C(O)c1cc(N(Cc2ccc(C3CCCCC3)cc2)C(=O)c2ccc(Oc3ccccc3)cc2)ccc1O
1.41 µM (active)

====

System: SKOV3
assay-method-text: Primary qHTS to identify gynecologic anti-cancer compounds using libraries of approved drugs and bioactive compounds (AID 1345084); also: nearly all actives have a fitted effect of over 55% in size
condition-details: Gynecologic cancer cell panel viability, ATPlite luminescence, 48 h; series mostly up to 57.5 µM
Records with an inconclusive call do not appear. Activity calls are given as the source filed them. The call rests on the fitted dose curve; in most records, active means well fitted cell-killing curve with a large enough effect; inconclusive means small, poorly fitted or top-dose-only effect, or effect the other way; inactive means flat fitted curve, though single readings scatter.
// one of y for active, n for inactive, no free text

What is the recorded call for this compound in the test? Cc1cc2c(cc1N1C(=O)c3cccc4c(CCCO)ccc(c34)C1=O)n(C)c(=O)n2C
n

Which outcome was assigned to C=C(C(=O)O)[C@@H]1CC=C(CCC(C)=O)[C@@H](C)CC1 in this test?
n

Kindly provide the recorded test outcome for the following compound: C=C1/C(=C/C=C2\CCC[C@]3(C)[C@@H]([C@@H](C)OCCC(O)(CC)CC)CC[C@@H]23)C[C@@H](O)C[C@@H]1O
n

In this assay, the call recorded for CC1(C)CCCC2(C)C1C(OC(=O)/C=C/C=C/C=O)C=C1COC(=O)C12O (centres undefined) was what?
n

For CC1(C)C2CCC(CO[C@@H]3O[C@H](CO[C@@H]4OC[C@](O)(CO)[C@H]4O)[C@@H](O)[C@H](O)[C@H]3O)C1C2 (some centres undefined) , what call appears in the results of this test?
n

Which outcome was assigned to Fc1ccc2c(CCNCc3cccc(OCC(F)(F)C(F)F)c3)c[nH]c2c1 in this test?
n

Field: outcome | Entry: COC1=CC(=O)C=C(C)C12Oc1c(Cl)c(OC)cc(OC)c1C2=O (centres undefined)
n

Can you look up the reported call for COC1C=C(C)C(O)(CO)C2(C)CCCC(C)(C)C12 (centres undefined) for me?
n

For c1ccc(-c2ccc(CNc3nc(-c4ccccn4)nnc3-c3ccccc3)cc2)cc1 , what call appears in the results of this test?
y

====

Test system: Hek293T
assay-method-text: Primary qHTS to identify gynecologic anti-cancer compounds using libraries of approved drugs and bioactive compounds (AID 1345084); also: nearly all actives have a fitted effect of over 55% in size
condition-details: Gynecologic cancer cell panel viability, ATPlite luminescence, 48 h, control line for the selectivity index; series mostly up to 57.5 µM
Results filed as inconclusive are left out. Activity calls are given as the source filed them. The call rests on the fitted dose curve; in most records, active means well fitted cell-killing curve with a large enough effect; inconclusive means small, poorly fitted or top-dose-only effect, or effect the other way; inactive means flat fitted curve, though single readings scatter.
Log the outcome using a class from yes (1) = active, no (0) = inactive

COc1cc2ncnc(Nc3ccc(F)c(Cl)c3)c2cc1O : no (0)

# evaluate next
So what was the verdict on CC(C)(C)Sc1c(CC(C)(C)C(=O)O)n(Cc2ccc(Cl)cc2)c2ccc(OCc3ccc4ccccc4n3)cc12 in this test?
no (0)

====

assay-method-text: Primary fluorescence-based thiol-reactive (MSTI) qHTS assay for identification of artifact compounds. (AID 1845221); also: nearly all actives have a fitted effect of over 65% in size
condition-details: MSTI thiol-reactivity probe, 1 h; series mostly up to 53.8 µM
Results filed as inconclusive are left out. Activity calls are given as the source filed them. Calls come from the whole dose curve; as a rule, active = well fitted inhibition curve with a large enough effect; inconclusive = small, poorly fitted or top-dose-only effect; inactive = no such curve, though single readings can be large or run the other way.
Response enum: 1.0 = active, 0.0 = inactive

Solved entries (count: 3):
C/C=C/C=C/C(=O)O[C@@H]1C=C2COC(=O)[C@]2(O)[C@@]2(C)CCCC(C)(C)[C@H]12 : 0.0
Nc1cccc(CNC(=O)c2ccc(Oc3ccc(OCc4cccc(F)c4)cc3)nc2)c1 : 0.0
CC(C)(F)CC(NC(c1ccc(-c2ccc(S(C)(=O)=O)cc2)cc1)C(F)(F)F)C(=O)NC1(C#N)CC1 (configuration not stated) : 0.0

Record lookup: outcome of this test for Clc1cccc(COc2cncc(N3CCNCC3)n2)c1 ?
0.0

What did the test return for CCCC(CCC)C(=O)NCc1ccc2c(cnn2-c2ccccc2OC)c1 ?
0.0

Please let me know the test result on file for Cc1c(OCc2cccc(-c3ccc(C(=O)O)cc3)c2)cc2c(c1C)C(=O)C(C1CCCC1)C2 (configuration not stated) .
0.0

Each molecule tested received a call. Report the one for CCN(Cc1cc(Nc2nc(C)cn3c(-c4cn[nH]c4)cnc23)sn1)C(C)(C)CO .
0.0

Status in this test for C=C1C(=O)OC2/C=C(\CO)CC/C=C(\C=O)C(OC)C(OC(=O)C(C)CC)C12 (configuration not stated) ?
1.0

====

assay-method-text: Primary fluorescence-based thiol-reactive (MSTI) qHTS assay for identification of artifact compounds. (AID 1845221); also: nearly all actives have a fitted effect of over 65% in size;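 as to activity change, negative = thiol reactive: thiol-reactive compounds lower the probe fluorescence signal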
condition-details: MSTI thiol-reactivity probe, 1 h; series mostly up to 53.8 µM
Records with an inconclusive call do not appear. Calls of active or inactive are those of the source. Calls follow the shape of the dose curve; as a rule, active = well fitted inhibition curve with a large enough effect; inconclusive = small, poorly fitted or top-dose-only effect; inactive = no such curve, though single readings can be large or run the other way. Where a SMILES comes first, the peptide text is derived from it. [ ]: non-standard residue; d: D form. Hyp = O=C(O)[CH]1C[CH](O)CN1; Phe(ol) = N[CH](CO)Cc1ccccc1; Iva = CC[C](C)(N)C(=O)O; Aib = CC(C)(N)C(=O)O
Entries annotated with measured activity change, negative = thiol reactive

Solved entries:
C[C@@H]1O[C@@H](O[C@H]2[C@H](OC(=O)[C@]34CCC(C)(C)C[C@H]3C3=CCC5[C@@]6(C)C[C@H](O)[C@H](O[C@@H]7O[C@H](CO)[C@@H](O)[C@H](O)[C@H]7O)[C@](CO)(C(=O)O)C6CC[C@@]5(C)[C@]3(C)C[C@H]4O)OC[C@H](O)[C@@H]2O)[C@H](O)[C@H](O)[C@H]1O[C@@H]1OC[C@@H](O)[C@H](O[C@@H]2OC[C@](O)(CO)[C@H]2O)[C@H]1O (stereo partly drawn) : 423% [at 11.5 µM] (inactive)
CC(=O)O[C@@H]1[C@H](O[C@@H]2O[C@@H](CO)[C@H](O)[C@H]2O)[C@@H](O[C@@H]2O[C@@H](C)[C@H](O[C@@H]3OC[C@@H](O)[C@H](O)[C@H]3O)[C@@H](O)[C@H]2O)[C@H](OC(=O)[C@]23CCC(C)(C)C[C@H]2C2=CCC4[C@@]5(C)CC[C@H](O[C@@H]6O[C@H](C(=O)O)[C@@H](O)[C@H](O)[C@H]6O[C@@H]6O[C@H](CO)[C@H](O)[C@H](O)[C@H]6O)[C@@](C)(C=O)C5CC[C@@]4(C)[C@]2(C)C[C@H]3O)O[C@@H]1C (stereo partly drawn) : 435% [at 11.5 µM] (inactive)

Here is another compound to look at.
Could you please provide reported activity change, negative = thiol reactive for CCC(C)(NC(=O)C(CCC(N)=O)NC(=O)C1CC(O)CN1C(=O)C(C)(C)NC(=O)C(C)(C)NC(=O)C(CC(C)C)NC(=O)CNC(=O)C(NC(=O)C(C)(C)NC(=O)C(C)(C)NC(=O)C(C)(C)NC(=O)C(Cc1ccccc1)NC(C)=O)C(C)C)C(=O)N1CC(O)CC1C(=O)NC(C)(C)C(=O)NC(CO)Cc1ccccc1 (stereo not drawn) (Ac-F[Aib][Aib][Aib]VGL[Aib][Aib][Hyp]Q[Iva][Hyp][Aib][Phe(ol)]; configuration not given here) ? Thanks!
0.987% [at 11.5 µM] (inactive)
